Quick list: GI50 per entry.
tested on: ACHN; assay: NCI tumour cell line growth inhibition, 48 h
Activity calls are given as the source filed them. No stated cut-off is given here; in the data, active = GI50 up to about 1.1 µM and inactive = higher.

Worked cases, GI50 given:
COMPOUND | MEASUREMENT NAME | VAL
O=c1[nH]ncc2[nH]c3c(c12)CCCc1ccccc1-3 | GI50 | 32.8 µM (inactive)
C=C1C(=O)OC2/C=C(\C)C3OC3/C=C(/C(=O)OC)C(OC(C)=O)C(OC(=O)C(C)(O)C(C)OC(C)=O)C12 (stereo not given) | GI50 | 3.78 µM (inactive)
COCC(=O)[C@]1(O)Cc2c(O)c3c(c(O)c2[C@@H](OC2CC(N)C(O)C(C)O2)C1)C(=O)c1c(OC)cccc1C3=O (stereo not given in full) | GI50 | 0.0703 µM (active)
NC1=C(N2CCCCC2)C(=O)NC2=N/C(=C\c3ccco3)C(=O)N21 | GI50 | > 100 µM (inactive)

Q. I have this compound here, O=C(c1ccc(Cl)cc1)c1ccc(OCCCOc2ccc(C(=O)c3ccc(Cl)cc3)cc2Cl)c(Cl)c1 , and I need its recorded GI50.
A. > 100 µM (inactive)

These entries and their values trace back to ChEMBL document CHEMBL1201862.
